Species on record: Rattus norvegicus
ASSAY INFO: Open TG-GATES - Regimen: Single
Assay type: toxicity, organism-based, Sprague-Dawley
Design: regimen Single, gender Male, age 6 weeks
TEST CONDITIONS: in vivo, po, 0 mg/kg, 24 h, tissue Plasma, route gavage, dose level Control
READOUT KIND: TG (mg/dL)
Dear colleague, please return just the value in mg/dL, with no unit written.

State its TG for this molecule: CC1=C(CC(=O)O)c2cc(F)ccc2/C1=C\c1ccc([S+](C)[O-])cc1 (stereo unspecified)
82.2

Give recorded TG. CN(C)C(=N)N=C(N)N [METFORMIN]
89.6

Could you please provide reported TG for O=NN1CCOCC1 [N-NITROSOMORPHOLINE] ? Thanks!
144.6

Determine its reported TG: CCC1(c2ccccc2)C(=O)NC(=O)NC1=O [PHENOBARBITAL]
77.4

Given the molecule CN(C)CCC=C1c2ccccc2COc2ccccc21 [DOXEPIN] , write its reported TG.
89

Quote TG reported for CCc1oc2ccccc2c1C(=O)c1cc(Br)c(O)c(Br)c1 [BENZBROMARONE] please.
100.2

State, in one line, measured TG of ClC(Cl)(Cl)Cl [CARBON TETRACHLORIDE]
100

Specify reported TG for the molecule shown: CC[C@H]1[C@@H]2C[C@H]3[C@@H]4N(C)c5ccccc5[C@]45C[C@@H]([C@@H]2[C@H]5O)N3[C@@H]1O [AJMALINE]
103

Return TG for the following molecule: OCCOCCN1CCN(C(c2ccccc2)c2ccc(Cl)cc2)CC1 (stereo unspecified) [HYDROXYZINE]
75.4

Name the recorded TG of the item O=NN(CCCl)C(=O)NC1CCCCC1 [LOMUSTINE] in your answer.
96.6

Return TG for the following molecule: CC(C)N(CCC(C(N)=O)(c1ccccc1)c1ccccn1)C(C)C (stereo unspecified) [DISOPYRAMIDE]
104

FYI, the data here is from ChEMBL document CHEMBL3885861.
